// data source = paper PMC9106695

molecular target: CFHR1-HIS (Complement factor H-related protein 1) (UniProt Q03591 19-330); experiment: SPR; aptamer immobilized; 20 mM Tris-HCl pH 7.4, 140 mM NaCl, 5 mM MgCl2, 1 mM CaCl2, 1 mM KCl; FLAA/MST with 0.1% BSA and 0.05% Tween 20 (FLAA at RT); SPR without BSA, 0.005% Tween 20; conditions: protein: commercial; tags: C-terminal HIS; label: 5'-BiotinTEG
Sequence (Q03591 19-330): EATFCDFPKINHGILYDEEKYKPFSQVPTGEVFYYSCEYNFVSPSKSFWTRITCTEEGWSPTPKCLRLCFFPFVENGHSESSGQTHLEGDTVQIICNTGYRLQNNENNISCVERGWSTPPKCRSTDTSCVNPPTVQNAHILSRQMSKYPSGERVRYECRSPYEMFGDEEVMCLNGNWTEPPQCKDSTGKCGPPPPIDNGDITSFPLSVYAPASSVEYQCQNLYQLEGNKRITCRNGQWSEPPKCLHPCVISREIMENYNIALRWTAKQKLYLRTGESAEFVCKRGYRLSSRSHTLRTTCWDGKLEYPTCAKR
Test readout: pKd
Quick note: pKd values are minus log10 of concentrations in mol/L.

Query: Item under review: CGTCATAGGTACCATGGGGGACTGCTCGGGATTGCGGATTCATG (ssDNA) [NDM1-H14-01-FR] . Reported pKd?
Response: 10.54
